- MEASUREMENT TARGET: Recombinant human CD33 protein (Homo sapiens (Human), UniProt P20138)
- Sequence (P20138 18-259): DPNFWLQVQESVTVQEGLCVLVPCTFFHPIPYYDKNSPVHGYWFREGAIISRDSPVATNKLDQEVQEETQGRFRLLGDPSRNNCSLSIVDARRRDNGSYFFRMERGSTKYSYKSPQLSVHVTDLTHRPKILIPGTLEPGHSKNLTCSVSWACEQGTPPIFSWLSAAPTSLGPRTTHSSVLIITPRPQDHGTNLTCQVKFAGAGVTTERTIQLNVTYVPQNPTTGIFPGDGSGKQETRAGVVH
- EXPERIMENT SUMMARY: CD33 competitive binding assay for HTS drug screen (fluorescent multivalent sialic acid probe)
Quick list: EC50 per entry.
Report only the number, with the unit µM understood.

Look over these answered cases.
1. Cc1cc(C(=O)NC[C@@H](O)[C@@H](O)[C@@H]2O[C@@](C/C=C/c3cccc(CNC(=O)c4cnccn4)c3)(C(=O)O)C[C@H](O)[C@H]2NC(=O)Cn2cc(C3CCCCC3)nn2)cc(C)c1O
2.8
2. CC(=O)N[C@H]1[C@H]([C@H](O)[C@H](O)CNC(=O)c2cc(C)c(O)c(C)c2)O[C@@](C/C=C/c2cccc(CNC(=O)c3cccc(NC(C)(C)C)c3)c2)(C(=O)O)C[C@@H]1O
9.79
3. CC(=O)N[C@H]1[C@H]([C@H](O)[C@H](O)CNC(=O)c2cc(C)c(O)c(C)c2)O[C@@](CCN2CCOC[C@@]23CCN(C(=O)OC(C)(C)C)C3)(C(=O)O)C[C@@]1(C)O
1.72

# ---- query molecule ----
Req: Provide the reported EC50 (system: Recombinant human CD33 protein (Homo sapiens (Human), UniProt P20138)) for CC(=O)N[C@H]1[C@H]([C@H](O)[C@H](O)CNC(=O)c2cn[nH]c2)O[C@@](CCN2CCOC[C@@]23CCN(C(=O)OC(C)(C)C)C3)(C(=O)O)C[C@@H]1O
Resp: 1.08

====

- MEASUREMENT TARGET: Recombinant Human Siglec-3/CD33 protein (His-CD33) (Homo sapiens (Human), UniProt P20138)
- Sequence (P20138 18-259): as above
- EXPERIMENT SUMMARY: Differential scanning fluorimetry (DSF) thermal shift assay
- Assay type: binding
- CONDITIONS USED: thermal melt shift of 0.5 μM CD33 protein with 50 μM compound
PARAMETER: DSF (dTmD)

1. CC(=O)N[C@H]1[C@H]([C@H](O)[C@H](O)CNC(=O)c2ccc(Cl)c(Cl)c2)O[C@@](CCN2CCOC[C@@]23CCN(C(=O)OC(C)(C)C)C3)(C(=O)O)C[C@@H]1O
10.8
2. CC(=O)N[C@H]1[C@H]([C@H](O)[C@H](O)CNC(=O)c2ccc3cn[nH]c3c2)O[C@@](CCN2CCOC[C@@]23CCN(C(=O)OC(C)(C)C)C3)(C(=O)O)C[C@@H]1O
8.9
3. CCN(CC)C(=O)N1CC[C@@]2(COCCN2CC[C@]2(C(=O)O)C[C@H](O)[C@@H](NC(C)=O)[C@H]([C@H](O)[C@H](O)CNC(=O)c3cc(C)c(O)c(C)c3)O2)C1
8.4
4. CC(=O)N[C@H]1[C@H]([C@H](O)[C@H](O)CNC(=O)c2cc(C)c(O)c(C)c2)O[C@@](CCN2CCOC[C@@]23CCN(C(=O)NCc2ccccc2)C3)(C(=O)O)C[C@@H]1O
9.1
5. COc1cc(C(=O)NC[C@@H](O)[C@@H](O)[C@@H]2O[C@@](CCN3CCOC[C@@]34CCN(C(=O)OC(C)(C)C)C4)(C(=O)O)C[C@H](O)[C@H]2NC(C)=O)ccc1C#N
5.7
6. CC(=O)N[C@H]1[C@H]([C@H](O)[C@H](O)CNC(=O)c2ccc(N3CCN(C)CC3)cc2)O[C@@](CCN2CCOC[C@@]23CCN(C(=O)OC(C)(C)C)C3)(C(=O)O)C[C@@H]1O
7.8
7. CC(=O)N[C@H]1[C@H]([C@H](O)[C@H](O)CNC(=O)c2cc(C)c(O)c(C)c2)O[C@@](CCN2CCN(C(C)=O)C[C@]23CCN(C(=O)OC(C)(C)C)C3)(C(=O)O)C[C@@H]1O
3.8
8. CC(=O)N[C@H]1[C@H]([C@H](O)[C@H](O)CNC(=O)c2ccc3[nH]nc(C)c3c2)O[C@@](CCN2CCOC[C@@]23CCN(C(=O)OC(C)(C)C)C3)(C(=O)O)C[C@@H]1O
13.3

Req: For the compound CC(=O)N[C@H]1[C@H]([C@H](O)[C@H](O)CNC(=O)c2cc(F)c(C(F)(F)F)c(F)c2)O[C@@](CCN2CCOC[C@@]23CCN(C(=O)OC(C)(C)C)C3)(C(=O)O)C[C@@H]1O , give its measured DSF (dTmD) value.
Resp: 6.9

Req: Look up and report measured DSF (dTmD) for this entry: CC(=O)N[C@H]1[C@H]([C@H](O)[C@H](O)CNC(=O)c2cnc(O)c(C)c2)O[C@@](CCN2CCOC[C@@]23CCN(C(=O)OC(C)(C)C)C3)(C(=O)O)C[C@@H]1O
Resp: 9.8

Req: Check the records and state DSF (dTmD) for CC(=O)N[C@H]1[C@H]([C@H](O)[C@H](O)CNC(=O)c2cc(C)c(O)c(C)c2)O[C@@](CCN2CCOC[C@@]23CCN(C(=O)C=C(C)C)C3)(C(=O)O)C[C@@H]1O
Resp: 9.4

Req: Name the recorded DSF (dTmD) of the compound listed here: CC(=O)N[C@H]1[C@H]([C@H](O)[C@H](O)CNC(=O)c2cc(C)c(O)c(C)c2)O[C@@](CCN2CCOC[C@@]23CCN(C(=O)c2ccc(C)cc2)C3)(C(=O)O)C[C@@H]1O
Resp: 7.3

Req: State, in one line, measured DSF (dTmD) of CC(=O)N[C@H]1[C@H]([C@H](O)[C@H](O)CNC(=O)c2cc(C)c(O)c(C)c2)O[C@@](CCN2CCOC[C@@]23CCN(C(=O)C2(c4ccccc4)CC2)C3)(C(=O)O)C[C@@H]1O
Resp: 6.9

Req: Hello, please tell me recorded DSF (dTmD) for this one: CC(=O)N[C@H]1[C@H]([C@H](O)[C@H](O)CNC(=O)c2cc(C)c(O)c(C)c2)O[C@@](CCN2CCOC[C@@]23CCN(C(=O)OC(C)(C)C)C3)(C(=O)O)C[C@@H]1O
Resp: 12.9

Req: Look up and state reported DSF (dTmD) for CC(=O)N[C@H]1[C@H]([C@H](O)[C@H](O)CNC(=O)c2cc(C)c(O)c(C)c2)O[C@@](CCN2CCOC[C@@]23CCN(C(=O)N(C)C(C)C)C3)(C(=O)O)C[C@@H]1O
Resp: 7.5
